Here the recorded fraction unbound at 16 hr, 1 μg/mL is given for each entry.
procedure summary: Plasma protein binding by equilibrium dialysis, human plasma
Assay type: in vitro ADME
test conditions: pH 7.4, equilibrium dialysis 16 hr at 37° C., % Bound

Use these answered entries as a reference point.
| compound | fraction unbound at 16 hr, 1 μg/mL |
| --- | --- |
| C[C@H](CO)n1ccc2c(C(=O)NCC3CCC(F)(F)CC3)c(Cl)ccc2c1=O | 0.1 to 0.24 |
| Cc1ccc2c(=O)n([C@H](C)CO)ccc2c1C(=O)NCc1cccc(C(F)(F)F)c1 | < 0.1 |
| Cc1ccc2c(=O)n([C@H](C)CO)ccc2c1NC(=O)Cc1ccc(C(F)(F)F)c(F)c1 | < 0.1 |
| C[C@H](CO)n1ccc2c(C(=O)NCc3ccc(C(F)(F)F)c(F)c3)c(Cl)ccc2c1=O | < 0.1 |
| Cc1ccc2c(=O)n([C@H](C)CN3CC(O)C3)ccc2c1NC(=O)Cc1ccc(C(F)(F)F)c(F)c1 | 0.1 to 0.24 |
| Cc1ccc2c(=O)n([C@H](C)CO)ccc2c1C(=O)NCc1ccc(C(F)(F)F)c(F)c1 | 0.1 to 0.24 |
| C[C@H](CO)n1ccc2c(C(=O)NCC3(O)CCC4(CC3)CC4(F)F)c(Cl)ccc2c1=O (stereo partly drawn) | 0.25 to 0.49 |
| Cc1ccc2c(=O)n(CCO)ccc2c1NC(=O)Cc1ccc(C(F)(F)F)c(F)c1 | < 0.1 |

Q: Which fraction unbound at 16 hr, 1 μg/mL value is on record for O=C(Cc1ccc(F)c(C(F)(F)F)c1)Nc1c(Cl)ccc2c(=O)n(CCO)ccc12 ?
Ans: < 0.1

Q: Which fraction unbound at 16 hr, 1 μg/mL value is on record for C[C@H](CO)n1ccc2c(NC(=O)Cc3ccc(C(F)(F)F)cc3)c(Cl)ccc2c1=O ?
Ans: < 0.1

Q: Which fraction unbound at 16 hr, 1 μg/mL value is on record for C[C@H](CO)n1ccc2c(C(=O)NCC3(O)CCC(C(F)(F)F)CC3)c(Cl)ccc2c1=O (stereo partly drawn) ?
Ans: 0.25 to 0.49

Q: Which fraction unbound at 16 hr, 1 μg/mL value is on record for Cc1ccc2c(=O)n([C@H](C)CO)ccc2c1NC(=O)Cc1ccc(Cl)c(F)c1 ?
Ans: 0.1 to 0.24

Q: Which fraction unbound at 16 hr, 1 μg/mL value is on record for C[C@H](CO)n1ccc2c(C(=O)NCC3(O)CCC(F)(F)CC3)c(Cl)ccc2c1=O ?
Ans: 0.25 to 0.49

Q: Which fraction unbound at 16 hr, 1 μg/mL value is on record for Cc1ccc2c(=O)n([C@H](C)CO)ccc2c1NC(=O)Cc1cccc(C(F)(F)F)c1F ?
Ans: < 0.1

Q: Which fraction unbound at 16 hr, 1 μg/mL value is on record for C[C@H](CO)n1ccc2c(NC(=O)Cc3ccc(F)c(C(F)(F)F)c3)c(Cl)ccc2c1=O ?
Ans: < 0.1

Q: Which fraction unbound at 16 hr, 1 μg/mL value is on record for Cc1ccc2c(=O)n([C@H](C)CN3CC[C@@H](N)C3)ccc2c1NC(=O)Cc1ccc(C(F)(F)F)c(F)c1 ?
Ans: 0.1 to 0.24

Q: Which fraction unbound at 16 hr, 1 μg/mL value is on record for C[C@H](CO)n1ccc2c(C(=O)NCC3(O)CCC4(CC3)CC4)c(Cl)ccc2c1=O ?
Ans: 0.25 to 0.49

The measured values listed here are drawn from patent US8093265B2.
